Reference source: ChEMBL document CHEMBL1134050

Exercise: for every item that follows, state its recorded Distribution ratio.
organism: Rattus norvegicus; test: Blood: Brain distribution ratio is determined in rat; type: ADME, organism-based

COMPOUND: COc1ccc(S(=O)(=O)Nc2ccccc2Br)cc1N1CCNCC1
OBSERVED: 0.24
//
COMPOUND: COc1ccc(S(=O)(=O)N2CCc3cc(C)c(C(F)(F)F)cc32)cc1N1CCNCC1
OBSERVED: 0.41
//
COMPOUND: COc1ccc(S(=O)(=O)Nc2cc(Cl)cc(Cl)c2)cc1N1CCNCC1
OBSERVED: 0.02
//
COMPOUND: COc1ccc(S(=O)(=O)Nc2cc(Br)ccc2Br)cc1N1CCNCC1
OBSERVED: 0.38
//
COMPOUND: COc1ccc(S(=O)(=O)Nc2cccc(I)c2)cc1N1CCNCC1
OBSERVED: 0.13

For COc1ccc(S(=O)(=O)Nc2cc(Cl)cc(Cl)c2Cl)cc1N1CCNCC1 the compound record lists Distribution ratio as 0.02

====

experiment: Bioavailability in rat (dose 10 mg/kg in 10% Encapsin and 2% DMSO p.o.); settings: in vivo, po
Exercise: for every item that follows, state its recorded bioavailability.
Numbers only, in %.

COMPOUND: COc1ccc(S(=O)(=O)Nc2cc(Br)cc(F)c2Br)cc1N1CCNCC1
MEASURED_METRIC: bioavailability
OBSERVED: 65

Now, please, on to the next molecule.
For COc1ccc(NS(=O)(=O)c2sc3ccc(Cl)cc3c2C)cc1N1CCNCC1 the molecule record lists bioavailability as 82

====

Exercise: for every item that follows, state its recorded pKi.
target: 5-hydroxytryptamine receptor 1B (Homo sapiens); experiment: Compound was evaluated for binding affinity against human cloned 5-hydroxytryptamine 1B receptor in CHO cells using [3H]5-HT as the radioligand
Sequence (P28222 whole entry): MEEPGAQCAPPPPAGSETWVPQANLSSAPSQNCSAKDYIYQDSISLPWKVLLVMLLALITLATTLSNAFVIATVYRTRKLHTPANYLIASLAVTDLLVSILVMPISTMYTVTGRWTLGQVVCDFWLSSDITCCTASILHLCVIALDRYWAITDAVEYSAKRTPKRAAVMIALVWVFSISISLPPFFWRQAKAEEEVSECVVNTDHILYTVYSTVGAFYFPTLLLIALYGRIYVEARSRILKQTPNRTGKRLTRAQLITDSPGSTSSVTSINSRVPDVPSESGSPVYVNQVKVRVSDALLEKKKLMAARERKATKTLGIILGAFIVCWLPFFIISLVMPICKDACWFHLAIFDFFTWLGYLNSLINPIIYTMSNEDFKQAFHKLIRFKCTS
pKi: −log10 of the molar value.

COMPOUND: COc1ccc(S(=O)(=O)N2CCc3ccc(I)cc32)cc1N1CCNCC1
EXPERIMENTAL_TARGET: 5-hydroxytryptamine receptor 1B (Homo sapiens)
OBSERVED: 5.90
--
COMPOUND: COc1ccc(S(=O)(=O)Nc2cc(Br)cc(F)c2Br)cc1N1CCNCC1
EXPERIMENTAL_TARGET: 5-hydroxytryptamine receptor 1B (Homo sapiens)
OBSERVED: < 5.40
--
COMPOUND: COc1ccc(S(=O)(=O)Nc2cc(Br)ccc2Br)cc1N1CCNCC1
EXPERIMENTAL_TARGET: 5-hydroxytryptamine receptor 1B (Homo sapiens)
OBSERVED: < 5.30

Record COc1ccc(S(=O)(=O)Nc2cc(Cl)cc(Cl)c2Cl)cc1N1CCNCC1 has 5-hydroxytryptamine receptor 1B (Homo sapiens) pKi equal to < 5.00

====

experiment: Plasma Clearance measured at steady-state following iv infusion at 0.6 mg/kg/h in rats; assay type: ADME, organism-based; design: route intravenous; details: rat, 0.6 mg/kg/h infusion
Exercise: for every item that follows, state its recorded clearance.
Give bare numbers, in mL/min/kg.

Answered examples (5):
COMPOUND: COc1ccc(S(=O)(=O)N2CCc3c(Cl)ccc(Cl)c3C2)cc1N1CCNCC1
clearance, mL/min/kg: 76

COMPOUND: COc1ccc(S(=O)(=O)Nc2ccccc2C(C)C)cc1N1CCNCC1
clearance, mL/min/kg: 52

COMPOUND: COc1ccc(S(=O)(=O)Nc2cc(Cl)cc(Cl)c2Cl)cc1N1CCNCC1
clearance, mL/min/kg: 2

COMPOUND: COc1ccc(S(=O)(=O)N2CCc3cc(C)c(C(F)(F)F)cc32)cc1N1CCNCC1
clearance, mL/min/kg: 73

COMPOUND: COc1ccc(S(=O)(=O)Nc2cc(Br)ccc2Br)cc1N1CCNCC1
clearance, mL/min/kg: 43

I have 6 compounds here; please give me clearance for each one.
1. COc1ccc(S(=O)(=O)Nc2cc(Br)cc(F)c2Br)cc1N1CCNCC1
2. COc1ccc(NS(=O)(=O)c2sc3ccc(Cl)cc3c2C)cc1N1CCNCC1
3. COc1ccc(S(=O)(=O)Nc2cccc(I)c2)cc1N1CCNCC1
4. COc1ccc(S(=O)(=O)Nc2ccccc2Br)cc1N1CCNCC1
5. COc1ccc(S(=O)(=O)N2CCc3cccc(Cl)c3C2)cc1N1CCNCC1
6. COc1ccc(S(=O)(=O)Nc2cc(Cl)cc(Cl)c2)cc1N1CCNCC1

Reply |
[14, 8, 58, 60, 83, 4]
